Recorded TGI values for a group of compounds are listed next.
Test system: SNB-19 CNS
test-protocol: NCI tumour cell line growth inhibition, 48 h
measured-endpoint: TGI (µM)

1. Cc1cccc2nc3cccc(C(=O)NCCN(C)C)c3nc12
5.27
2. CN(/N=N/c1nc(OCc2ccccc2)c2[nH]cnc2n1)C(=O)Oc1ccc([N+](=O)[O-])cc1
27.9

###

log10 TGI listing for selected compounds.
Test system: SNB-75 CNS
test-protocol: NCI tumour cell line growth inhibition, 48 h
measured-endpoint: log10 TGI (log10 of the value in µM)

1. Cc1cccc2nc3cccc(C(=O)NCCN(C)C)c3nc12
0.48
2. Cc1nc(Nc2nc3ccccc3o2)nc(-c2cccc([N+](=O)[O-])c2)c1C(=O)Nc1ccc(F)c(Cl)c1
0.98
3. O=C1C=CC(O)C2C1CC13SSC4(CC5C(=O)C=CC(O)C5N4C1=O)C(=O)N23 (stereo not given)
0.71
4. Clc1nc(Cl)c2ncn(Cc3ccc(Cn4cnc5c(Cl)nc(Cl)nc54)cc3)c2n1
1.58
5. Oc1ccc(Cl)cc1CNc1nc2ccccc2[nH]1
1.33
6. CC12Oc3ccc4ccccc4c3CC1Cc1c(ccc3ccccc13)O2 (stereo not given)
1.62
7. CO[C@H]1CC(c2ccc[nH]2)=N[C@]12O[C@@H](C)C[C@@H]1CCCCCCCc3ccc([nH]3)[C@H]12
0.45
8. CC1=C(C(=O)OC(C)C)C(c2ccccc2C(F)(F)F)C(C(=O)OC(CO[N+](=O)[O-])CO[N+](=O)[O-])=C(C)N1 (stereo not given)
1.22

###

Test system: MCF7 breast
test-protocol: NCI tumour cell line growth inhibition, 48 h
We begin with a simple list: items and their reported TGI.
measured-endpoint: TGI

1) CC(C)C(NC(=O)C(Cc1ccccc1)NC(=O)[C@H]1CCC[C@H]1NC(=O)C(N)Cc1ccc(O)cc1)C(N)=O (stereo not given in full)
> 100 µM
2) O=C1CC(c2ccc(Cl)cc2)Oc2ccccc21 (stereo not given)
13.6 µM
3) COc1cc2c3c(n(CCCN=[N+]=[N-])c(=O)c2cc1OC)-c1ccc(N(C)C)cc1C3=O
> 100 µM
4) CCc1nc(N)nc(N)c1-c1ccc(Cl)c(N=CN(C)C)c1
> 100 µM
5) COc1ccc(CCNC(=O)[C@H]2CCCC[C@@H]2CCO)cc1OC
> 100 µM

###

The reader will find reported TGI values listed item by item below.
Test system: T-47D breast
test-protocol: NCI tumour cell line growth inhibition, 48 h
measured-endpoint: TGI

1. Cc1c(Sc2ccccc2)[n+](=O)c2cc(Cl)c(Cl)cc2n1[O-]
> 100 µM
2. c1ccc2cc3c(cc2c1)nc1ccccn13
> 100 µM
3. c1ccc(CNc2nc(Nc3ccccc3)nc3ccccc23)cc1
4.46 µM
4. CCCNc1nc2ccccc2c2c1S(=O)(=O)c1ccc(Cl)cc1C2=O
> 50 µM
5. CN(C)CC1CN=C(NC(=O)Nc2ccccc2)O1 (stereo unspecified)
> 100 µM
6. CC1=C(C(=O)OC(C)C)C(c2ccccc2C(F)(F)F)C(C(=O)OC(CO[N+](=O)[O-])CO[N+](=O)[O-])=C(C)N1 (stereo unspecified)
> 100 µM
7. COc1cc(Cl)cc(-c2nn(-c3cccc(NC(=O)Nc4ccc(Cl)c(C(F)(F)F)c4)c3)cc2-c2ccncc2)c1
8.02 µM
8. FC1=C2CCCCCC2SC1(F)F (stereo unspecified)
> 100 µM
9. Cc1cc2c(cc1N)C(C)C1(CCC(=O)N2Cc2ccccc2)OCCO1 (stereo unspecified)
> 100 µM
10. CN1C(Cl)=NS(=O)(=O)c2ccccc21
> 100 µM
11. CCOC(=O)c1c(N2CCCC2)[nH]c(=O)c(C(c2cccs2)c2c(O)c(C(=O)OCC)c(N3CCCC3)[nH]c2=O)c1O
> 100 µM
12. C/C=C(\C)C(=O)N[C@H]1C(O)C[C@]2(C)C3CC[C@@]4(C)C(CC[C@@H]4C(C)N(C)C)C3CCC2C1O (stereo partly specified)
17.7 µM
13. O=C(/C=C(\O)c1ccccc1)c1cc(-c2ccccc2)n(-c2ccccc2)n1
37.9 µM
14. CCOP(=O)(OCC)/C(C#N)=C/c1ccnc2ccccc12
> 100 µM
15. COc1cc2oc(=O)ccc2cc1CC=C(C)C
> 100 µM
16. O=C1c2ccccc2C(=O)c2oc(Br)cc21
3.6 µM
17. Cc1ccc(S(=O)(=O)NNC2Oc3cc4c(cc3C(c3ccccc3O)C2C)OCO4)cc1 (stereo unspecified)
25.6 µM
18. Cc1ccc2c(=O)cc(-c3sc4ccccc4c3C)[nH]c2n1
55.8 µM
19. Cc1cc(OCc2nnc3n2N=C(c2ccc(Cl)cc2Cl)CS3)ccc1Cl
> 100 µM
20. Oc1ccc(Cl)cc1CNc1nc2ccccc2[nH]1
47.9 µM
21. O=C1Oc2cc3c(c4cccc1c24)O[C@H](c1ccccc1)[C@@H](c1ccccc1)[C@@H]3c1ccc(Cl)cc1
> 100 µM

###

Measured TGI by item
Tested on: OVCAR-8 ovarian
test-protocol: NCI tumour cell line growth inhibition, 48 h
measured-endpoint: TGI (µM)

1. COc1cc(/C=C/C(=O)c2cccnc2Nc2ccc(F)cc2)cc(OC)c1OC
13.4
2. COc1cc(C(=O)Oc2c(C#N)sc3c2c(=O)n(-c2ccccc2)c(=S)n3-c2ccccc2)cc(OC)c1OC
59.2
3. COc1ccc2nc(NC(=O)c3cccnc3Nc3cc(OC)c(OC)c(OC)c3)sc2c1
22.6

###

Tested on: SF-268 CNS
test-protocol: NCI tumour cell line growth inhibition, 48 h
Let's look at some compounds and their measured TGI.
measured-endpoint: TGI (µM)

1) Cc1ccc2c(=O)cc(-c3sc4ccccc4c3C)[nH]c2n1
69.7
2) CNCCC=C1c2ccccc2CCc2ccccc21
29.6
3) N#Cc1c(N2CCOCC2)[nH]c(=O)c(C(c2c(Cl)cccc2Cl)c2c(O)c(C#N)c(N3CCOCC3)[nH]c2=O)c1O
51.1
4) O=C1C=CC(O)C2C1CC13SSC4(CC5C(=O)C=CC(O)C5N4C1=O)C(=O)N23 (stereo not drawn)
5.85

###

Recorded TGI values for a group of compounds are listed next.
Test system: SK-MEL-5 melanoma
test-protocol: NCI tumour cell line growth inhibition, 48 h
measured-endpoint: TGI (µM)

1) CNC(=O)OCC1C2=C(C(=O)C(C)=C(N)C2=O)N2CC3C(N3C)C12OC (centres undefined)
23.8
2) CCn1c2ccccc2c2cc(C(O)c3cccc4ncccc34)ccc21 (centres undefined)
1.57
3) CCOC(=O)/C(C#N)=C/c1ccc2c(c1)CC1(C2)Cc2cc(CC)c(C(C)O)cc2C1 (centres undefined)
16.8

###

Test system: SF-268 CNS
test-protocol: NCI tumour cell line growth inhibition, 48 h
measured-endpoint: TGI

1. O=c1[nH]c2c(c(=O)[nH]1)SSC2
13.6 µM
2. CCOC(=O)c1c(N2CCCC2)[nH]c(=O)c(C(c2cccs2)c2c(O)c(C(=O)OCC)c(N3CCCC3)[nH]c2=O)c1O
> 100 µM
3. O=C(CC1C(=O)Nc2ccccc2S1=O)Nc1ccc(Cl)cc1 (stereo not drawn)
> 100 µM
4. CCC(Oc1ccc(OC)c2ccccc(=O)c12)C(=O)O (stereo not drawn)
> 100 µM
5. O=S(=O)(NCCNc1nccc(-c2c(-c3ccc(F)cc3)nc3sccn23)n1)c1ccccc1
> 100 µM
6. COc1ccc(CCNCCCC2c3ccccc3-c3ccccc32)cc1OC
30.3 µM
7. O=S(=O)(C/C(=N\O)c1ccccc1)c1ccccc1
> 100 µM
8. S=c1[nH]nc(NNc2ccccc2)n1Nc1ccccc1
> 100 µM
9. CSc1cccc(NC(=O)OC2CCCCCCCCCCC2)c1
> 100 µM
10. CC1OC(OC2C(Oc3cc(O)c4c(c3)O[C@H](c3ccc(O)cc3)CC4=O)OC(CO)C(O)C2O)C(O)C(O)C1O (stereo partly drawn)
> 100 µM
11. Cn1c(=O)c(Oc2ccc(F)cc2F)cc2cnc(NCCS(C)(=O)=O)nc21
> 25 µM
12. CN1C(Cl)=NS(=O)(=O)c2ccccc21
> 100 µM
13. Cc1nc2c(=O)n3c4c(cccc4c2o1)CCC3
> 100 µM
14. CCC1CN2CCC3(c4ccccc4)CC(C(=O)OC)=CC1C23 (stereo not drawn)
27.7 µM
15. Cc1ccc(NC(=O)C(=O)Cc2cc[n+]([O-])cc2)cc1
> 100 µM
16. CCN(CC)CCSCCCNc1c2ccc(Cl)cc2nc2ccc(OC)cc12
3.01 µM
17. CN(C)C(=S)/N=c1\ss/c(=N\S(=O)(=O)c2ccccc2)n1N(C)C
> 100 µM
18. CC(=O)OCC(Br)C1(C)CCC(C(C)(C)Br)O1 (stereo not drawn)
> 100 µM
19. O=C(NNC(=O)c1ccccc1O)c1ccc(O)cc1
> 100 µM
20. FC1=C2CCCCCC2SC1(F)F (stereo not drawn)
> 100 µM
21. CC1=C(/C=C/C(C)=C/C=C/C(C)=C/CO)C(C)(C)CCC1
52 µM
22. CC(C)(C)OC(=O)N(CCCCNCc1ccc2ccccc2c1)CCCNCc1ccc2ccccc2c1
3.29 µM
23. COCCOC(=O)C(C)=[N+]=[N-]
> 100 µM
